From: the supplement of paper PMC7125110

B1: glmS ribozyme (parent)
chain: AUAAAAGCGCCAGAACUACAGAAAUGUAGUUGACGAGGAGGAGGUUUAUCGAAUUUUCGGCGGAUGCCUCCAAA

- Variants of: B1
- ASSAY_PROTOCOL: self-cleavage kobs at 640 uM GlcN6P; higher = faster cleavage; RNA array
- TEST_PARAMETERS: with glucosamine-6-phosphate
This sample holds only a part of the variants without activity.
RECORDED_ENDPOINT: self-cleavage kobs at 640 uM GlcN6P

Reference set (5 entries):
>>> recorded_result("G13U G32U C34A G35U")
"< 1e-05 s⁻¹"
>>> recorded_result("G32U A48U C61U G63U C67U")
"< 1e-05 s⁻¹"
>>> recorded_result("G29C G41C G60A")
"< 1e-05 s⁻¹"
>>> recorded_result("G40U G44U")
"< 1e-05 s⁻¹"
>>> recorded_result("G32U G41A U47G C61A G62U")
"< 1e-05 s⁻¹"

Task item: I would be grateful if you could share the reported self-cleavage kobs at 640 uM GlcN6P for G7C C16A .
Reply: < 1e-05 s⁻¹

Task item: Bench note: what self-cleavage kobs at 640 uM GlcN6P did G9A C67A C68G show?
Reply: < 1e-05 s⁻¹

Task item: Which self-cleavage kobs at 640 uM GlcN6P is reported for this variant? G9U C16U
Reply: < 1e-05 s⁻¹

Task item: Given the entry C10U C11G A14G C16A G41A G51U , report its measured self-cleavage kobs at 640 uM GlcN6P.
Reply: < 1e-05 s⁻¹

Task item: Return reported self-cleavage kobs at 640 uM GlcN6P; argument: A42G U69A
Reply: 0.00094 s⁻¹

Task item: What measured self-cleavage kobs at 640 uM GlcN6P goes with C8G G59C ?
Reply: < 1e-05 s⁻¹

Task item: Could you tell me which self-cleavage kobs at 640 uM GlcN6P is on file for A12G G13U G62A ?
Reply: < 1e-05 s⁻¹

Task item: Endpoint output: self-cleavage kobs at 640 uM GlcN6P of A14U U56A . Value?
Reply: 0.000692 s⁻¹

Task item: Which measured self-cleavage kobs at 640 uM GlcN6P value corresponds to C34U A39U ?
Reply: < 1e-05 s⁻¹

Task item: Entry A12C U54G C68G : reported self-cleavage kobs at 640 uM GlcN6P = ?
Reply: 4.37e-05 s⁻¹

Task item: Requested field: self-cleavage kobs at 640 uM GlcN6P. Item: C34A G66U
Reply: < 1e-05 s⁻¹

Task item: Quick one: self-cleavage kobs at 640 uM GlcN6P for A14U U47G ?
Reply: 0.000416 s⁻¹

Task item: Entry under review: A42C U45G . Reported self-cleavage kobs at 640 uM GlcN6P?
Reply: < 1e-05 s⁻¹

Task item: Give the measured self-cleavage kobs at 640 uM GlcN6P of G9A U46C G63C .
Reply: < 1e-05 s⁻¹

Task item: Endpoint output: self-cleavage kobs at 640 uM GlcN6P of U54A G66A . Value?
Reply: 0.00513 s⁻¹

Task item: Record request: self-cleavage kobs at 640 uM GlcN6P value, item A42U C67A
Reply: 0.00067 s⁻¹

Task item: Given the entry G51U U56C , report its measured self-cleavage kobs at 640 uM GlcN6P.
Reply: < 1e-05 s⁻¹

Task item: # input variant: G29U G32A ; wanted: its self-cleavage kobs at 640 uM GlcN6P
Reply: 0.000328 s⁻¹
